# system.name: T1, human neuropeptide Y2 receptor (human, UniProt P49146 1-381)
# T1 sequence (looked up): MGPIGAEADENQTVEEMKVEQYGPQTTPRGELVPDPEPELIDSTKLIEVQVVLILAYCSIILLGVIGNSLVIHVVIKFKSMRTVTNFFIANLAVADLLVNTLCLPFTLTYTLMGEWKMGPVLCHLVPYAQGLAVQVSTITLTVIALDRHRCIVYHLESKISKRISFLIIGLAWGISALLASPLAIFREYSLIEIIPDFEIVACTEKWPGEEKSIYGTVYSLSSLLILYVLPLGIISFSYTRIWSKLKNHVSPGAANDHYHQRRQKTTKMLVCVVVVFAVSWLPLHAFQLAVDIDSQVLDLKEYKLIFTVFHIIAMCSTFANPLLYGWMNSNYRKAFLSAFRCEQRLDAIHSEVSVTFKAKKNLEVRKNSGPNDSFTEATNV
# protocol.details: cell-based or functional assay
*1 amine or outer side, *2 acyl side, *3 side chain or, on linkers, in order; H or OH if unused. Where no end group is shown, it is not given here. Side-chain parts run from the residue outwards. [ ]: non-standard residue; d: D form. The star is where a group is joined. C20 diacid = O=C(O)CCCCCCCCCCCCCCCCCCC(=O)*; C18 diacid = O=C(O)CCCCCCCCCCCCCCCCC(=O)*; γGlu = O=C(O)[C@H](CCC(=O)[*:2])N[*:1]; εLys = N[C@@H](CCCCN[*:1])C(=O)[*:2]; Aib = CC(C)(N)C(=O)O
EC50, CreLuc reporter, 100% hP overview
Numbers only here, please. The scale is nM.

>>> value_reported("Y[Aib]EGTFTSDLSI[Aib]LEKQAQ[Aib]AFVRHLINK([γGlu-εLys-γGlu-γGlu-γGlu-γGlu-γGlu-C20 diacid])[Aib]TRQRY-NH2 [Compound 60]")
124
>>> value_reported("YXEGTFTSDYSIXLEKQAQXAFVRHLIAKXTRQRY (Aib at 2, 13, 20, 30; Lys29 epsilon-amino acylated with C18DA-gGlu-gGlu-gGlu-gGlu-gGlu-gGlu-eLys; C-terminal amide) [Compound 68]")
690
>>> value_reported("YXEGTFTSDYSIXLEKQAQXAFVRHLINKXTRQRY (Aib at 2, 13, 20, 30; Lys29 epsilon-amino acylated with C18DA-gGlu-gGlu-gGlu-gGlu-gGlu-AHX; C-terminal amide) [Compound 13]")
121
>>> value_reported("YXEGTFTSDYSIXLDKQAQXAFVRHLINKXTRQRY (Aib at 2, 20, 30; aMeL at 13; Lys29 epsilon-amino acylated with C18DA-gGlu-gGlu-gGlu-gGlu-gGlu-gGlu-eLys; C-terminal amide) [Compound 67]")
112

Q: Look up EC50, CreLuc reporter, 100% hP: Y[Aib]EGTFTSDYSI[Aib]LEKQAQ[Aib]EFVRHLINK([εLys-γGlu-γGlu-γGlu-γGlu-γGlu-γGlu-γGlu-C18 diacid])[Aib]TRQRY-NH2 [Compound 30]
Result: 81.1
